Test system: upland rice (Oryza sp., var. Tebonnet, RICE)
Experiment: Post-emerge test, crop safety
Type: in vivo
Conditions: post-emerge, 63 g ai/ha, crop damage rating 0-100 at 14 days after application
quantity name: Post-emerge Herbicidal Activity RICE

INSERT INTO assay_data (compound_smiles, quantity_name, readout_value) VALUES
  ('Cc1c(Cl)cc(F)c(-n2c(=O)cc(C(F)(F)F)n(C)c2=O)c1NC(=O)OCc1ccco1', 'Post-emerge Herbicidal Activity RICE', 30),
  ('CC(C)Oc1c(Cl)cc(F)c(N2C(=O)C3=C(CCCC3)C2=O)c1NC(=O)c1ccc(F)cc1F', 'Post-emerge Herbicidal Activity RICE', 50),
  ('Cc1c(Cl)cc(F)c(-n2c(=O)cc(C(F)(F)F)n(C)c2=O)c1NC(=O)OCc1ccc(Cl)cc1Cl', 'Post-emerge Herbicidal Activity RICE', 30),
  ('COc1c(Cl)cc(F)c(N2C(=O)C3=C(CCCC3)C2=O)c1N', 'Post-emerge Herbicidal Activity RICE', 0),
  ('Cc1c(Cl)cc(F)c(-n2c(=O)cc(C(F)(F)F)n(C)c2=O)c1NC(=O)OCc1ccc(Cl)cc1', 'Post-emerge Herbicidal Activity RICE', 40),
  ('COc1cccc(COC(=O)Nc2c(C)c(Cl)cc(F)c2-n2c(=O)cc(C(F)(F)F)n(C)c2=O)c1', 'Post-emerge Herbicidal Activity RICE', 70),
  ('COc1c(Cl)cc(F)c(-n2ncc(C(F)(F)F)cc2=O)c1NC(=O)c1ccc2ccccc2c1', 'Post-emerge Herbicidal Activity RICE', 20),
  ('O=C(Nc1cc(Cl)ccc1N1C(=O)C2=C(CCCC2)C1=O)c1ccc2ccccc2c1', 'Post-emerge Herbicidal Activity RICE', 10);

* * *

System: large crabgrass (Digitaria sanguinalis, DIGSA)
Experiment: Post-emerge test, greenhouse herbicide activity screening
Type: in vivo
Settings: Rate 63 g ai/ha; rating scale 0-100 (0 no damage, 100 complete death); 14 days after application
Attribute: Post-emerge Herbicidal Activity, phytotoxicity rating DIGSA
quantity name: Post-emerge Herbicidal Activity, phytotoxicity rating DIGSA

INSERT INTO assay_data (compound, readout_value) VALUES
  ('COCCOC(=O)C(C)(Cl)Cc1c(OC)c(Cl)cc(F)c1-n1c(=O)cc(C(F)(F)F)n(C)c1=O (stereo not shown)', 95),
  ('CCCOC(=O)C(Cl)Cc1c(OC)c(Cl)cc(F)c1-n1c(=O)cc(C(F)(F)F)n(C)c1=O (single isomer, unassigned) [14-7]', 80),
  ('CCOC(=O)C(Cl)(CC(=O)OC)Cc1c(OC)c(Cl)cc(F)c1-n1c(=O)cc(C(F)(F)F)n(C)c1=O (stereo not shown)', 0),
  ('CCCCOC(=O)C(Cl)Cc1c(OC)c(Cl)cc(F)c1-n1c(=O)cc(C(F)(F)F)n(C)c1=O (single isomer, unassigned) [14-9]', 75);

* * *

Tested on: ivyleaf morningglory (Ipomoea hederacea, IPOHE)
Assay: Pre-emerge test, greenhouse herbicide activity screening
Format: in vivo
Conditions: 250 g ai/ha; rated 14 days after application; 0 = no damage, 100 = complete death
Procedure: A standard greenhouse herbicide activity screening system was used to evaluate the herbicidal efficacy and crop safety of these test compounds. […] At 14 days after application of the test materials, phytotoxicity ratings were recorded. […]
quantity name: Pre-emerge Herbicidal Activity, phytotoxicity rating (0-100), IPOHE

INSERT INTO results (compound_smiles, readout_value) VALUES
  ('COc1c(Cl)cc(F)c(-n2c(=O)cc(C(F)(F)F)n(C)c2=O)c1NC(=O)c1ccc(I)cc1', 80),
  ('COc1c(Cl)cc(F)c(-n2c(=O)cc(C(F)(F)F)n(C)c2=O)c1NC(=O)c1ccc(F)cc1F', 100),
  ('COc1c(Cl)cc(F)c(-n2c(=O)cc(C(F)(F)F)n(C)c2=O)c1NC(=O)c1ccccc1Cl', 100),
  ('COc1c(Cl)cc(F)c(-n2c(=O)cc(C(F)(F)F)n(C)c2=O)c1NC(=O)c1ccc(C)c(C)c1', 100),
  ('COc1c(Cl)cc(F)c(-n2c(=O)cc(C(F)(F)F)n(C)c2=O)c1NC(=O)c1ccc(Cl)c(Cl)c1', 100),
  ('Cn1c(C(F)(F)F)cc(=O)n(-c2c(F)cc(Cl)c(OCC#N)c2N(C(=O)c2ccc(F)cc2F)C(=O)c2ccc(F)cc2F)c1=O', 0),
  ('COc1c(Cl)cc(F)c(-n2c(=O)cc(C(F)(F)F)n(C)c2=O)c1NC(=O)COCc1ccccc1', 100),
  ('COc1c(Cl)cc(F)c(-n2c(=O)cc(C(F)(F)F)n(C)c2=O)c1N(C(=O)c1ccc(Cl)nc1)C(=O)c1ccc(Cl)nc1', 100),
  ('COc1c(Cl)cc(F)c(-n2c(=O)cc(C(F)(F)F)n(C)c2=O)c1NC(=O)c1ccc2c(c1)OCO2', 100),
  ('COc1c(Cl)cc(F)c(-n2c(=O)cc(C(F)(F)F)n(C)c2=O)c1NC(=O)c1cc([N+](=O)[O-])cc([N+](=O)[O-])c1', 60),
  ('COc1c(Cl)cc(F)c(-n2c(=O)cc(C(F)(F)F)n(C)c2=O)c1NC(=O)c1c(F)cccc1F', 100),
  ('COc1c(Cl)cc(F)c(-n2c(=O)cc(C(F)(F)F)n(C)c2=O)c1NC(=O)c1cccnc1', 100),
  ('COc1ccc(C(=O)Nc2c(OC)c(Cl)cc(F)c2-n2c(=O)cc(C(F)(F)F)n(C)c2=O)cc1', 100),
  ('COc1c(Cl)cc(F)c(-n2c(=O)cc(C(F)(F)F)n(C)c2=O)c1NC(=O)c1cnc2ccccc2n1', 95),
  ('CCOC(=O)C(=O)Nc1c(OC)c(Cl)cc(F)c1-n1c(=O)cc(C(F)(F)F)n(C)c1=O', 80),
  ('COc1c(Cl)cc(F)c(-n2c(=O)cc(C(F)(F)F)n(C)c2=O)c1NC(=O)c1ccc(-c2ccccc2)cc1', 0),
  ('COc1c(Cl)cc(F)c(-n2c(=O)cc(C(F)(F)F)n(C)c2=O)c1NC(=O)c1ccccc1F', 100);

Measured values drawn from patent US6355799B1 for this set.
